experiment: NBI-750142 concentration in cynomolgus monkey plasma by LC-MS/MS; assay type: in vivo, cynomolgus monkeys (Macaca fascicularis); details: cynomolgus monkey, intravenous, 0.78 mg/kg, GC786, 0.78 mg/kg i.v.

smiles.structure	concentration at 180 min [ng/mL]
COc1cc2c(cc1OC)[C@H]1CN(C)[C@H](CC(C)(C)C)CN1CC2	86.5

* * *

experiment: NBI-750142 concentration in cynomolgus monkey plasma by LC-MS/MS; assay type: in vivo, cynomolgus monkeys (Macaca fascicularis); settings: cynomolgus monkey, intravenous, 0.26 mg/kg, GC786, 0.26 mg/kg i.v.

smiles.structure	concentration at 180 min
COc1cc2c(cc1OC)[C@H]1CN(C)[C@H](CC(C)(C)C)CN1CC2	15.3 ng/mL
